Target: WRN [UniPro: Q14191 (WRN_HUMAN), N500-C946] (Homo sapiens (Human), UniProt Q14191)
Sequence (Q14191 500-946): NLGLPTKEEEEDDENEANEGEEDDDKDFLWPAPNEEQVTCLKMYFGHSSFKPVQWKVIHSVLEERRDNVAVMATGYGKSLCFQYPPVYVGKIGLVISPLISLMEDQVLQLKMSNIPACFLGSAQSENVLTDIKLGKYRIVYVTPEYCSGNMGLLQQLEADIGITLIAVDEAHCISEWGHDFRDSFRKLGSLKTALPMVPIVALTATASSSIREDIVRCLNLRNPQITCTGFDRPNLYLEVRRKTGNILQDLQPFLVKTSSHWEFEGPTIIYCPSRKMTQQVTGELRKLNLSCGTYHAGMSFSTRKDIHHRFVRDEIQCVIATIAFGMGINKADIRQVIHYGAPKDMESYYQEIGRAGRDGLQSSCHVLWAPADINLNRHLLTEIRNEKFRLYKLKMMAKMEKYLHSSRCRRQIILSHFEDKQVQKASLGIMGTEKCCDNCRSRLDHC
Assay: WRN ATPase assay (ADP-Glo)
Format: biochemical
Settings: WRN enzymatic activity assay
Quick reference: IC50 of the listed items.
assayEndpoint: IC50

{"smilesStructure": "CCc1c(N2CCN(C(=O)c3ncc(F)cc3N)CC2)c(=O)n2nc(C3=CCOCC3)nc2n1CC(=O)Nc1ccc(C(F)(F)F)cc1Cl", "reportedResult": "100 to 1000 nM"}
{"smilesStructure": "CCc1c(N2CCN(C(=O)CNC(=O)c3cc(N)c(F)cc3F)CC2)c(=O)n2nc(C3=CCOCC3)nc2n1CC(=O)Nc1ccc(C(F)(F)F)cc1Cl", "reportedResult": "< 100 nM"}
{"smilesStructure": "CCc1c(N2CCN(C(=O)CNC(=O)c3nc(C)co3)CC2)c(=O)n2nc(C3=CCOCC3)nc2n1CC(=O)Nc1ccc(C(F)(F)F)cc1Cl", "reportedResult": "100 to 1000 nM"}
{"smilesStructure": "CCc1c(N2CCN(C(=O)CNC(=O)c3cnn(C)c3)CC2)c(=O)n2nc(C3=CCOCC3)nc2n1CC(=O)Nc1ccc(C(F)(F)F)cc1Cl", "reportedResult": "< 100 nM"}
{"smilesStructure": "CCc1c(N2CCN(C(=O)c3ncsc3N)CC2)c(=O)n2nc(C3=CCOCC3)nc2n1CC(=O)Nc1ccc(C(F)(F)F)cc1Cl", "reportedResult": "100 to 1000 nM"}
{"smilesStructure": "CCc1c(N2CCN(C(=O)CNC(=O)c3cc(O)cc(F)c3)CC2)c(=O)n2nc(C3=CCOCC3)nc2n1CC(=O)Nc1ccc(C(F)(F)F)cc1Cl", "reportedResult": "< 100 nM"}
{"smilesStructure": "CCc1c(N2CCN(C(=O)CNC(=O)C3CC3)CC2)c(=O)n2nc(C3=CCOCC3)nc2n1CC(=O)Nc1ccc(C(F)(F)F)cc1Cl", "reportedResult": "< 100 nM"}

* * *

Molecular target: WRN [UniPro: Q14191 (WRN_HUMAN), N500-C946] (Homo sapiens (Human), UniProt Q14191)
Experiment: WRN unwinding assay (FORKF DNA, fluorescence)
Type: biochemical
Details: Table 14
compounds and their reported IC50

{"smilesStructure": "CCc1c(N2CCN(C(=O)c3nnc(Cl)cc3O)CC2)c(=O)n2nc(C3=CCOCC3)nc2n1CC(=O)Nc1ccc(C(F)(F)F)cc1Cl", "IC50": "< 100 nM"}
{"smilesStructure": "CCc1c(N2CCN(C(=O)CNC(=O)N3Cc4ccncc4C3)CC2)c(=O)n2nc(C3=CCOCC3)nc2n1CC(=O)Nc1ccc(C(F)(F)F)cc1Cl", "IC50": "< 100 nM"}
{"smilesStructure": "CCc1c(N2CCN(C(=O)CNC(=O)c3cccnc3O)CC2)c(=O)n2nc(C3=CCOCC3)nc2n1CC(=O)Nc1ccc(C(F)(F)F)cc1Cl", "IC50": "< 100 nM"}
{"smilesStructure": "CCc1c(N2CCN(C(=O)c3nc(C(F)(F)F)c[nH]3)CC2)c(=O)n2nc(C3=CCOCC3)nc2n1CC(=O)Nc1ccc(C(F)(F)F)cc1Cl", "IC50": "100 to 1000 nM"}
{"smilesStructure": "CCc1c(N2CCN(C(=O)CNS(=O)(=O)CC)CC2)c(=O)n2nc(C3=CCOCC3)nc2n1CC(=O)Nc1ccc(C(F)(F)F)cc1Cl", "IC50": "100 to 1000 nM"}
{"smilesStructure": "CCNC(=O)NCC(=O)N1CCN(c2c(CC)n(CC(=O)Nc3ccc(C(F)(F)F)cc3Cl)c3nc(C4=CCOCC4)nn3c2=O)CC1", "IC50": "< 100 nM"}
{"smilesStructure": "CCc1c(N2CCN(C(=O)CNC(=O)c3ncccc3O)CC2)c(=O)n2nc(C3=CCOCC3)nc2n1CC(=O)Nc1ccc(C(F)(F)F)cc1Cl", "IC50": "< 100 nM"}
{"smilesStructure": "CCc1c(N2CCN(C(=O)c3cn(C)c(=O)[nH]c3=O)CC2)c(=O)n2nc(C3=CCOCC3)nc2n1CC(=O)Nc1ccc(C(F)(F)F)cc1Cl", "IC50": "< 100 nM"}

src = patent US20260015358A1
